Task for the reader: assign each of the following molecules its reported T/C.
test system: L1210 leukemia ip in BDF1 mice, survival T/C; test: NCI In Vivo Anticancer Drug Screen. Data for tumor model L1210 Leukemia (intraperitoneal) in B6D2F1 (BDF1) mice; settings: endpoint: mean survival time; dose: 200.0 mg/kg/injection; schedule: Q01DX001 (ip); vehicle: Klucel (hydroxypropylcellulose) (HPC); higher = longer survival
Inconclusive results and toxic doses are left out.

>  <molecule>
O=C1OC(c2ccc(F)c3ccccc23)C2CCCCC12 (configuration not stated)

>  <T/C>
102 % of control

$$$$
>  <molecule>
Cc1cc(C)cc(OC(=S)N(C)C)c1

>  <T/C>
98 % of control

$$$$
>  <molecule>
O=C(Nc1ccccc1C(F)(F)F)c1ccc(F)cc1

>  <T/C>
95 % of control

$$$$
>  <molecule>
O=C(O)C1=NNC(C(=O)O)=NN1

>  <T/C>
100 % of control

$$$$
>  <molecule>
COc1ccccc1-n1c(O)c(N=Nc2ccc(Br)cc2)c(=O)n(-c2ccc(C)cc2)c1=S

>  <T/C>
102 % of control

$$$$

Report T/C for every entry below.
1. CN1CCOc2ccccc2OCCOCCOc2ccccc2OCC1
2. c1ccc(C2(C3(c4ccccc4)SCCCS3)CN2)cc1 (configuration not stated)

### Response
96 % of control
97 % of control

###

test system: L1210 leukemia ip in BDF1 mice, survival T/C; assay: NCI In Vivo Anticancer Drug Screen. Data for tumor model L1210 Leukemia (intraperitoneal) in B6D2F1 (BDF1) mice; settings: endpoint: mean survival time; dose: 200.0 mg/kg/injection; schedule: Q01DX001 (ip); vehicle: saline; higher = longer survival
Inconclusive results and toxic doses are left out.
measurement-kind: T/C

# annotated cases, reported T/C shown
>  <compound>
CCCCSc1n[nH]c(=O)nc1N

>  <T/C>
96 % of control

$$$$
>  <compound>
Cc1ccc2c(c1C)C(=O)C(=O)N2

>  <T/C>
110 % of control

$$$$
>  <compound>
COc1ccc(C2(OC)Oc3ccccc3C(=O)C2(O)O)cc1 (stereo not drawn)

>  <T/C>
101 % of control

$$$$
>  <compound>
CCN(Cc1ccccc1)c1nn[nH]n1

>  <T/C>
102 % of control

$$$$
>  <compound>
CCCCC(=O)N/N=C/c1ccc(OCC)c(OCC)c1

>  <T/C>
98 % of control

$$$$
>  <compound>
O=c1[nH]cc[nH]1

>  <T/C>
105 % of control

$$$$
>  <compound>
CN=NNc1ccc(C)cc1

>  <T/C>
116 % of control

$$$$
>  <compound>
O=C(Nc1ccc([N+](=O)[O-])cc1)N1CCCCC1

>  <T/C>
95 % of control

$$$$

Report T/C for every entry below.
1. CC1CCOC1=O (stereo not drawn)
2. CC1(O)CCCCC1

### Response
105 % of control
104 % of control

Report T/C for every entry below.
1. Cc1ccc(NC(=O)Nc2ccc(CNC(=O)COc3ccc(Cl)cc3C(=O)O)cc2)cc1S(=O)(=O)F
2. Cc1[nH]c2ccccc2c1C(=O)Cc1ccc(Cl)c(Cl)c1
3. CCC/C=C(\C)CCCC
4. CC(=O)c1cccnc1

### Response
94 % of control
98 % of control
99 % of control
93 % of control
